# Test system: heterologous F. ignava NrdA/L. blandensis NrdB holoenzyme (Leeuwenhoekiella blandensis)
# Construct: mixed-species complex; F. ignava NrdA His6-tagged, E. coli; with Ribonucleoside-diphosphate reductase subunit alpha (Falseniella ignava CCUG 37419)
# Sequence (A3XHF9 1-427): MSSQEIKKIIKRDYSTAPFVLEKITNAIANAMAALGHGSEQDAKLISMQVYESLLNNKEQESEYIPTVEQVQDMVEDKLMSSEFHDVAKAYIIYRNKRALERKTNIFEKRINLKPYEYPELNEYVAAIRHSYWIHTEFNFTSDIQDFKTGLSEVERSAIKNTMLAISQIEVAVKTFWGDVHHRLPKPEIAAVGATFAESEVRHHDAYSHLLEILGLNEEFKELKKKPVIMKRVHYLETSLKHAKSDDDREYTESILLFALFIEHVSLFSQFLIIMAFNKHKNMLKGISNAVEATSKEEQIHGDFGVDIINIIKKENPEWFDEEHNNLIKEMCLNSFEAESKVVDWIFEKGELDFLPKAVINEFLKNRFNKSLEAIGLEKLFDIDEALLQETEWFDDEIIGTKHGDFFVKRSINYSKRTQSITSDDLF
# Sequence (K1MC37 1-567 partner): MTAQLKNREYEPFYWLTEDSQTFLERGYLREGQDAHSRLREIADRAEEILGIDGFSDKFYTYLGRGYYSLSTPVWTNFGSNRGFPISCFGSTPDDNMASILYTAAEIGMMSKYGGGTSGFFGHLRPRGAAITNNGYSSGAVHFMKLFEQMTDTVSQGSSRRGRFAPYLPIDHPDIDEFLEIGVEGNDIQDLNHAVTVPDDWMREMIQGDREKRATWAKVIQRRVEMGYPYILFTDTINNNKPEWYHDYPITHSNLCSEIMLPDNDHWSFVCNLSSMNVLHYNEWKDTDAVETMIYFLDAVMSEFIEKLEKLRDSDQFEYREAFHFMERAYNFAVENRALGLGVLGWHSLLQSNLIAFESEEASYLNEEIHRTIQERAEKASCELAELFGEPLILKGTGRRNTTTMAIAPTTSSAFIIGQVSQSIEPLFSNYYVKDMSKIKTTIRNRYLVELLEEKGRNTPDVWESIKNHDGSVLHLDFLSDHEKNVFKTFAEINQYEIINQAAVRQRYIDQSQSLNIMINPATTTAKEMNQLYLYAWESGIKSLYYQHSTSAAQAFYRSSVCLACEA
# Run description: RNR activity (dGDP formation by HPLC)
# Settings: GDP substrate, 2 mM dTTP, pH 8, room temperature; allosteric inhibition via L. blandensis NrdB ATP cone
Endpoint: Ki

1. Nc1ncnc2c1ncn2[C@H]1C[C@H](O)[C@@H](COP(=O)(O)OP(=O)(O)OP(=O)(O)O)O1
~70 µM
